Test system: ATP;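 further: ATP exposure 15 min at 22 °C before imaging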
ASSAY INFO: switch fluorescence ratio, 500 uM ATP over buffer (Cy3 cluster intensity, sum of 5 cycles each) (fold (ratio)); higher = stronger signal-on switching upon ATP binding; sequences stand for … in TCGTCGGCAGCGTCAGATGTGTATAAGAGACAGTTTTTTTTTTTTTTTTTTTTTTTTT…TC
MEASUREMENT CONTEXT: aptamer strand: ATP DNA aptamer (quencher-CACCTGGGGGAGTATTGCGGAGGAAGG + anchor), 100 nM annealed; ATP concentration: 500 uM
# label = true if switch fluorescence ratio >= 1 else false

[[record]]
biopolymer_sequence = "TTGGTTGGAC"
class_assignment = "true"


Query :: Would you say GAGGGAGGCT shows switch fluorescence ratio at minimum 1?
Result :: true

Query :: Textbook exercise: given the entry ATCCAGTGTG , state whether its switch fluorescence ratio is greater than or equal to 1.
Result :: true

Query :: Can CTCACAGGGG be said to have switch fluorescence ratio at or above 1?
Result :: true

Query :: Test whether the sequence GGTTGACTTA records switch fluorescence ratio of 1 or higher.
Result :: true

* * *

Tested on: ATP;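 further: ATP exposure 15 min at 22 °C before imaging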
ASSAY INFO: switch fluorescence ratio, 500 uM ATP over buffer (Cy3 cluster intensity, sum of 5 cycles each) (fold (ratio)); higher = stronger signal-on switching upon ATP binding; sequences stand for … in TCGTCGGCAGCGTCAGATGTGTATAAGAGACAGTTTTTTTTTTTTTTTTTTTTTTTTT…TC
MEASUREMENT CONTEXT: aptamer strand: ATP DNA aptamer (quencher-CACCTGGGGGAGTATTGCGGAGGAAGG + anchor), 100 nM annealed; ATP concentration: 500 uM
MEASUREMENT LABEL: switch fluorescence ratio
Answer with a number only.

Worked set:
[[record]]
biopolymer_sequence = "CGTGAAGATG"
test_system = "ATP"
assay_value = 0.967

[[record]]
biopolymer_sequence = "TACGGGGTAG"
test_system = "ATP"
assay_value = 0.996

[[record]]
biopolymer_sequence = "ATAGTAGCTA"
test_system = "ATP"
assay_value = 0.976


Next sequence, please.
# sequence TGTTGCGAAA ; its switch fluorescence ratio = 1

* * *

Test system: ATP;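 further: ATP exposure 15 min at 22 °C before imaging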
ASSAY INFO: switch fluorescence ratio, 500 uM ATP over buffer (Cy3 cluster intensity, sum of 5 cycles each) (fold (ratio)); higher = stronger signal-on switching upon ATP binding; sequences stand for … in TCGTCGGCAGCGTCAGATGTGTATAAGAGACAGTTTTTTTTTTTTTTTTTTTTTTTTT…TC
MEASUREMENT CONTEXT: aptamer strand: ATP DNA aptamer (quencher-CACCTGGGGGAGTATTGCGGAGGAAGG + anchor), 100 nM annealed; ATP concentration: 500 uM
switch fluorescence ratio values, listed per item
Response field accepts a number only; no unit should be typed.

[[record]]
biopolymer_sequence = "TACGTTATAG"
measurement_label = "switch fluorescence ratio"
assay_value = 1.11


Summary for this sequence, CTGTAAGGCC : switch fluorescence ratio is 0.981

The sequence listed as TGGTTTTATT has a reported switch fluorescence ratio of 1.01

The measured switch fluorescence ratio associated with TCGTCGTGTG reads 1

Note to self: switch fluorescence ratio recorded for TTTTTAGTTG was 1.12

Input TAAGAACGAT . Output switch fluorescence ratio: 0.987

* * *

System: ATP;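 further: ATP exposure 15 min at 22 °C before imaging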
ASSAY INFO: switch fluorescence ratio, 500 uM ATP over buffer (Cy3 cluster intensity, sum of 5 cycles each) (fold (ratio)); higher = stronger signal-on switching upon ATP binding; sequences stand for … in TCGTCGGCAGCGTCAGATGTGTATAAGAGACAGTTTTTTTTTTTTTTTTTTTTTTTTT…TC
MEASUREMENT CONTEXT: aptamer strand: ATP DNA aptamer (quencher-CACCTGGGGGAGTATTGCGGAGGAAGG + anchor), 100 nM annealed; ATP concentration: 500 uM
Quick reference: switch fluorescence ratio of the listed items.
Reply with the value as a number alone.

Worked cases, switch fluorescence ratio given:
[[record]]
biopolymer_sequence = "AAAATGGAGA"
measurement_label = "switch fluorescence ratio"
assay_value = 0.983

[[record]]
biopolymer_sequence = "GTTATCTCTT"
measurement_label = "switch fluorescence ratio"
assay_value = 0.996

[[record]]
biopolymer_sequence = "TATTAGTGCT"
measurement_label = "switch fluorescence ratio"
assay_value = 0.977

[[record]]
biopolymer_sequence = "TTTGGGACAG"
measurement_label = "switch fluorescence ratio"
assay_value = 0.981

[[record]]
biopolymer_sequence = "TTAGAGAGTG"
measurement_label = "switch fluorescence ratio"
assay_value = 0.984

[[record]]
biopolymer_sequence = "CGGATCTGAA"
measurement_label = "switch fluorescence ratio"
assay_value = 1.01


Entry under test: AGTTCTAGGA . Its switch fluorescence ratio was 0.953

Noted for CGAAAGGAA : its switch fluorescence ratio reads 1.01

GET /value?item= TCAAGATGTG &field=switch fluorescence ratio returns 0.99

* * *

Test system: ATP;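 further: ATP exposure 15 min at 22 °C before imaging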
ASSAY INFO: switch fluorescence ratio, 500 uM ATP over buffer (Cy3 cluster intensity, sum of 5 cycles each) (fold (ratio)); higher = stronger signal-on switching upon ATP binding; sequences stand for … in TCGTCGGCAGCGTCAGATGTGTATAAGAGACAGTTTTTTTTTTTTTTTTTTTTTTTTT…TC
MEASUREMENT CONTEXT: aptamer strand: ATP DNA aptamer (quencher-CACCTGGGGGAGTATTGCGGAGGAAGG + anchor), 100 nM annealed; ATP concentration: 500 uM
Returns one of met or not met; met when switch fluorescence ratio is >= 1.

Below are worked cases with known answers.
[[record]]
biopolymer_sequence = "AGCGATAGTA"
test_system = "ATP"
class_assignment = "met"

[[record]]
biopolymer_sequence = "CACTTAAAAG"
test_system = "ATP"
class_assignment = "met"

[[record]]
biopolymer_sequence = "GCGGGATCCG"
test_system = "ATP"
class_assignment = "met"


Query :: # bool: switch fluorescence ratio of TCTCAGGGGT >= 1
Result :: met

Query :: Hi, just wondering whether TCACGGATGT shows switch fluorescence ratio of 1 or higher.
Result :: met

Query :: In plain terms: is recorded switch fluorescence ratio at least 1 for TAACTGTTCC ?
Result :: met

Query :: Decide: is the reported value of switch fluorescence ratio for AGGCAGACCG equal to or greater than 1?
Result :: met

Query :: Form field: switch fluorescence ratio at least 1? Entry: ACGGGCGGGC
Result :: met

Query :: Reported switch fluorescence ratio reaches at least 1 for TGTGAGGCGG ?
Result :: met

Query :: Test whether the sequence CGTACCTGCG records switch fluorescence ratio of 1 or higher.
Result :: met

Query :: API: above_or_equal(metric=switch fluorescence ratio, cutoff=1) for item CGGTTTCCTC
Result :: met

Query :: Could you verify whether the entry ATGGGTGTCG shows switch fluorescence ratio of no less than 1?
Result :: met

Query :: Is the recorded value of switch fluorescence ratio equal to or greater than 1 for this sequence? TGGGGTGGAG
Result :: not met

Query :: I'd appreciate it if you could say whether TTAAGGGTAA has switch fluorescence ratio at least equal to 1.
Result :: not met

Query :: # check: switch fluorescence ratio of GCACCGGCTA is greater than or equal to 1
Result :: met

* * *

System: ATP;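 further: ATP exposure 15 min at 22 °C before imaging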
ASSAY INFO: switch fluorescence ratio, 500 uM ATP over buffer (Cy3 cluster intensity, sum of 5 cycles each) (fold (ratio)); higher = stronger signal-on switching upon ATP binding; sequences stand for … in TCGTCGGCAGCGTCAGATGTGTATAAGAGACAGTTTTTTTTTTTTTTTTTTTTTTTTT…TC
MEASUREMENT CONTEXT: aptamer strand: ATP DNA aptamer (quencher-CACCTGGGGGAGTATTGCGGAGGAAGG + anchor), 100 nM annealed; ATP concentration: 500 uM
MEASUREMENT LABEL: switch fluorescence ratio
Respond with the number and no other words.

[[record]]
biopolymer_sequence = "TATTTTTCTC"
test_system = "ATP"
assay_value = 0.983

[[record]]
biopolymer_sequence = "ATGCGCTGGG"
test_system = "ATP"
assay_value = 1.01

[[record]]
biopolymer_sequence = "CTTAAATATG"
test_system = "ATP"
assay_value = 1

[[record]]
biopolymer_sequence = "AGGCGGCTTC"
test_system = "ATP"
assay_value = 1.03

[[record]]
biopolymer_sequence = "AATGGCAATG"
test_system = "ATP"
assay_value = 1.05


Per the record, GCATATGTCG has switch fluorescence ratio of 1.1

Measured switch fluorescence ratio of GCAGCACGCG : 1.03

Entry CTGTCGAGTA , switch fluorescence ratio reported as 1.13

Data point: ATTGAATTTT ; switch fluorescence ratio = 0.98

Value of measured switch fluorescence ratio for the entry TCGTGTTTGT : 1.02

Noted for CGTGGATAGC : its switch fluorescence ratio reads 1.02

For reference, reported switch fluorescence ratio for GATCATGCGG stands at 0.985

get_value(item= TTTTGTCCAT , readout=switch fluorescence ratio) returns 0.992

* * *

Test system: ATP;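 further: ATP exposure 15 min at 22 °C before imaging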
ASSAY INFO: switch fluorescence ratio, 500 uM ATP over buffer (Cy3 cluster intensity, sum of 5 cycles each) (fold (ratio)); higher = stronger signal-on switching upon ATP binding; sequences stand for … in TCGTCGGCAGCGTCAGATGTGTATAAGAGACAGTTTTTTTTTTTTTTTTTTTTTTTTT…TC
MEASUREMENT CONTEXT: aptamer strand: ATP DNA aptamer (quencher-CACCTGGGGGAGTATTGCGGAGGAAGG + anchor), 100 nM annealed; ATP concentration: 500 uM
Form field: switch fluorescence ratio (one value per entry).

Please review the following examples before continuing.
[[record]]
biopolymer_sequence = "TTGGGCAGGG"
assay_value = 0.982

[[record]]
biopolymer_sequence = "AAAATCGAAA"
assay_value = 0.99

[[record]]
biopolymer_sequence = "AGCCAGATTC"
assay_value = 0.975

[[record]]
biopolymer_sequence = "CAGGGGCACG"
assay_value = 1.06

[[record]]
biopolymer_sequence = "TTCGAAGGGC"
assay_value = 1.14

[[record]]
biopolymer_sequence = "GGCATGTTAG"
assay_value = 0.985

[[record]]
biopolymer_sequence = "GGTATCACGG"
assay_value = 0.991

[[record]]
biopolymer_sequence = "AAAGTTTCTC"
assay_value = 1


Bench note, ATP: ATCATTGTTA , switch fluorescence ratio reads 1

These measurements were taken from the supplement of paper PMC10126150.
